# normalized growth values compiled below
- assay.text: chemical genetic growth profiling, strain panel (AID 1159580);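 also: tested at 20 µM; growth read once vehicle control cultures reached saturation at 30 °C; 1 = growth at the plate median or of vehicle wells; lower values mean less growth of the strain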
- test.parameters: S. cerevisiae deletion strains, growth OD, locus YDL101C, strain DUN1, stronger effect = lower value
Hit rate of the full screen: of about 5,500 compounds, about 2,000 (36%) were called active. Inconclusive results (about 18%) are left out. Some of the results follow.
Lab note: record just the number, no unit beside it.

The following compounds have reported results that may help.
compound | property.measured | reported.measurement
N#CC(C#N)=NNc1ccc(C(F)(F)F)cc1 | normalized growth | 0.124
CCOc1ccc(Cc2nccc3cc(OCC)c(OCC)cc23)cc1OCC | normalized growth | 0.956
N#CCCNc1cc(C(F)(F)F)cc(C(F)(F)F)c1 | normalized growth | 0.986
CN(NC(=S)Nc1cc(Cl)ccc1Cl)c1ccc(C(F)(F)F)cc1[N+](=O)[O-] | normalized growth | 0.969
O=C(Nc1ccc(OC(F)(F)F)cc1)Nc1cncc(C(F)(F)F)c1 | normalized growth | 1.01
CN1Cc2c(N)cccc2C(c2ccccc2)C1 (centres undefined) | normalized growth | 1.01

The reported normalized growth of the compound CSC(SC)=C(C#N)C(=O)c1ccccc1Cl was 0.583

The reported normalized growth of the compound O=C1c2ccccc2C(=O)c2c1ccc(O)c2O was 0.235

The reported normalized growth of the compound CCn1cc([N+](=O)[O-])nc1C was 1.03

The reported normalized growth of the compound CSc1nc(Sc2n[nH]c(-c3ccccc3)n2)cc(Sc2n[nH]c(-c3ccccc3)n2)n1 was 0.991

The reported normalized growth of the compound CC(C)(C)c1ccc(C(=O)N/N=C\c2cc(Cl)cc(Cl)c2O)cc1 was 0.852

The reported normalized growth of the compound N#C/C(=N/Nc1ccc(Cl)cc1)C(N)=S was 0.345

The reported normalized growth of the compound CC(=O)OC1CCC23C(=O)OC45CCC(C6=CC(=O)OC6)C4(C)CCC2C5CCC3(O)C1 (centres undefined) was 1.01

The reported normalized growth of the compound C[C@H]1C(=O)O[C@@H]2CCN3CC=C(COC(=O)[C@](C)(O)[C@]1(C)O)[C@H]23 was 0.99

---

# normalized growth values compiled below
- assay.text: chemical genetic growth profiling, strain panel (AID 1159580)
- test.parameters: S. cerevisiae deletion strains, growth OD, locus YFR010W, strain ubp6, stronger effect = lower value
Screen size: about 5,500 compounds; about 2,000 (36%) were called active. Another 18% or so got no clear call; they are omitted. The list shows a part of the results.

compound | normalized growth
O=C(O)c1cc2cc(Cl)ccc2[nH]1 | 0.986 (inactive)
COc1cc(OC)c2c(=O)c(-c3ccc4c(c3)OCO4)coc2c1 | 1 (inactive)
Cn1cnc([N+](=O)[O-])c1Sc1ncnc2nc[nH]c12 | 1 (inactive)
CC(=O)O[C@@H]1CC2C(C)(C)[C@H](O)C[C@H](O)[C@]2(C)C2CC[C@@]3(C)C(=CC(=O)O[C@H]3c3ccoc3)[C@@]21C (stereo partly specified) | 1.02 (inactive)
CCCCC(=O)O[C@H]1CCC2C3CCc4cc(O)ccc4C3CC[C@@]21C (stereo partly specified) | 1.04 (inactive)

The reported normalized growth of the compound CC(=O)O[C@H]1CC2CCC3C(CC[C@@]4(C)C3C[C@H]([N+]3(C)CCCCC3)[C@@H]4OC(C)=O)[C@@]2(C)C[C@@H]1[N+]1(C)CCCCC1 (stereo partly specified) was 1.01 (inactive)

The reported normalized growth of the compound CCCCCN=C(N)N/N=C\c1c[nH]c2ccc(OC)cc12 was 1.03 (inactive)

The reported normalized growth of the compound N#Cc1ccc2c(c1)N(CCCN1CCC(O)CC1)c1ccccc1S2 was 0.999 (inactive)

The reported normalized growth of the compound Nc1ncnc2c1ncn2[C@@H]1O[C@H](CO)[C@@H](O)[C@@H]1O was 1.02 (inactive)

The reported normalized growth of the compound O=c1[nH]cnc2nc[nH]c12 was 1.03 (inactive)

The reported normalized growth of the compound COc1c2occc2cc2ccc(=O)oc12 was 0.94 (inactive)

The reported normalized growth of the compound C[C@]12CCC3c4ccc(O)cc4CCC3C1CC[C@@H]2OC(=O)CCC1CCCC1 (stereo partly specified) was 1.01 (inactive)

---

# normalized growth values compiled below
- assay.text: chemical genetic growth profiling, strain panel (AID 1159580)
- test.parameters: S. cerevisiae deletion strains, growth OD, locus YBR160W, strain CDC28, stronger effect = lower value
About 2,000 (36%) of roughly 5,500 compounds were called active. About 18% were inconclusive and are not listed. The list shows a part of the results.
Lab note: record just the number, no unit beside it.

smiles.code | normalized growth
O=S(=O)(Nc1ccc(-n2nc(C(F)(F)F)cc2-c2cccs2)cc1)c1ccc(F)cc1 | 0.998
O=S(=O)(Nc1cc(-c2cccs2)nn1-c1ccc(I)cc1)c1cccc(F)c1 | 0.956
COc1ccc(-c2cc(NS(=O)(=O)c3cccc(F)c3)n(-c3ccc(Cl)c(Cl)c3)n2)cc1 | 0.963
Cc1c(C(=O)NCCNc2ccc(C(F)(F)F)cc2[N+](=O)[O-])cnn1-c1ccc(F)cc1 | 0.979

We now examine a further compound.
The reported normalized growth of the compound CCCCCc1ccc(-c2nc(SCC(C)=O)n[nH]2)cc1 was 0.947

---

- assay.text: chemical genetic growth profiling, strain panel (AID 1159580);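 also: tested at 20 µM; growth read once vehicle control cultures reached saturation at 30 °C; 1 = growth at the plate median or of vehicle wells; lower values mean less growth of the strain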
- test.parameters: S. cerevisiae deletion strains, growth OD, locus YNL153C, strain GIM3, stronger effect = lower value
Screen size: about 5,500 compounds; about 2,000 (36%) were called active. Not shown: some 18% with an inconclusive outcome. The list shows a part of the results.
property.measured: normalized growth

compound | normalized growth
N[C@@H](CCCC(=O)O)C(=O)O | 1.02 (inactive)
N#CC(C#N)=CNc1cc(C(F)(F)F)ccc1N1CCCCC1 | 1.01 (inactive)
O=c1nc(-c2ccccc2)nc(-c2ccccc2)[nH]1 | 1.01 (inactive)

We now examine a further compound.
The reported normalized growth of the compound O=C1c2ccccc2C(=O)c2c1ccc(O)c2O was 0.28 (active)

---

- assay.text: chemical genetic growth profiling, strain panel (AID 1159580);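 also: tested at 20 µM; growth read once vehicle control cultures reached saturation at 30 °C; 1 = growth at the plate median or of vehicle wells; lower values mean less growth of the strain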
- test.parameters: S. cerevisiae deletion strains, growth OD, locus YGR135W, strain pre9, stronger effect = lower value
About 2,000 (36%) of roughly 5,500 compounds were called active. Inconclusive results (about 18%) are left out. This is one part of the list.
property.measured: normalized growth
Lab note: record just the number, no unit beside it.

compound | property.measured | reported.measurement
N#Cc1ccc2c(c1)N(CCCN1CCC(O)CC1)c1ccccc1S2 | normalized growth | 1.01
O=C(CCCN1CC=C(n2c(=O)[nH]c3ccccc32)CC1)c1ccc(F)cc1 | normalized growth | 0.968
O=c1n(CCCN2CCN(c3cccc(Cl)c3)CC2)nc2ccccn12 | normalized growth | 1.03
C[C@]12CCC3C(CC[C@H]4CC(=O)CC[C@]34C)C1CCC2=O (stereo partly drawn) | normalized growth | 0.856
C[N+]1(C)C2CC[C@H]1CC(OC(=O)C(O)c1ccccc1)C2 (stereo partly drawn) | normalized growth | 1.04
Cn1nnnc1SCC1=C(C(=O)O)N2C(=O)C(NC(=O)C(OC=O)c3ccccc3)C2SC1 (stereo not drawn) | normalized growth | 1.02
COc1cc(OC)c(-c2c(OC)cc(OC)cc2OC)c(OC)c1 | normalized growth | 1.07
CC(C)=CCC1=C(O)c2ccccc2C(=O)C1=O | normalized growth | 0.953
O=c1[nH]c2ccccc2n1C1CCN(CCCC(c2ccc(F)cc2)c2ccc(F)cc2)CC1 | normalized growth | 0.926
C[C@]12CCC3C(CC[C@H]4C[C@@H](Cl)CC[C@]34C)C1CCC2=O (stereo partly drawn) | normalized growth | 0.997

The reported normalized growth of the compound Cc1cc(C)nc(NS(=O)(=O)c2ccc(N)cc2)n1 was 0.995

The reported normalized growth of the compound N#C/C(=C\c1ccc(O)cc1)C(=O)O was 0.988

---

# normalized growth values compiled below
- assay.text: chemical genetic growth profiling, strain panel (AID 1159580);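 also: tested at 20 µM; growth read once vehicle control cultures reached saturation at 30 °C; 1 = growth at the plate median or of vehicle wells; lower values mean less growth of the strain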
- test.parameters: S. cerevisiae deletion strains, growth OD, locus YHR079C, strain IRE1 (second series), stronger effect = lower value
About 2,000 (36%) of roughly 5,500 compounds were called active. Roughly 18% stayed inconclusive and do not appear here. This is one part of the list.
Lab note: record just the number, no unit beside it.

The following compounds have reported results that may help.
compound | normalized growth
CC(=O)OCC(=O)[C@@]1(O)CCC2C3CCC4=CC(=O)CC[C@]4(C)[C@@]3(F)[C@@H](O)C[C@@]21C (stereo partly specified) | 1.01
CCCC(=O)Nc1ncnc2c1ncn2C1O[C@@H]2COP(=O)(O)O[C@H]2[C@H]1OC(=O)CCC (stereo partly specified) | 1.02
COc1cc(O)c(C(=O)O)c(O)c1 | 1.01
COc1cc(OC)cc(OC)c1 | 0.598
CCS(=O)(=O)CCn1c([N+](=O)[O-])cnc1C | 1.02

We now examine a further compound.
The reported normalized growth of the compound COc1cc(OC)c(-c2c(OC)cc(OC)cc2OC)c(OC)c1 was 1.02
